B1: LINE1-mini (parent)
chain: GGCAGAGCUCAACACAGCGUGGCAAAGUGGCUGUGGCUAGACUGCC

Variants of: B1
Test: self-cleavage, relative activity (ratio to wild type); higher = more cleavage; in vitro, sequencing; the parent is a self-cleaving ribozyme
Please note: yes applies when self-cleavage is 0.06 or greater, and no applies otherwise.

Query: Assess whether reported self-cleavage for G21A G40C sits at 0.06 or higher.
Result: yes

Query: Assess whether reported self-cleavage for G27U C46G sits at 0.06 or higher.
Result: yes

Query: Assess whether reported self-cleavage for G2U A6U sits at 0.06 or higher.
Result: yes

Query: Assess whether reported self-cleavage for C10A G22A sits at 0.06 or higher.
Result: no

Query: Assess whether reported self-cleavage for G7C C46G sits at 0.06 or higher.
Result: yes

Query: Assess whether reported self-cleavage for A24U G30U sits at 0.06 or higher.
Result: yes

Query: Assess whether reported self-cleavage for U9C G21A sits at 0.06 or higher.
Result: no

Query: Assess whether reported self-cleavage for U28A G29A sits at 0.06 or higher.
Result: yes

Query: Assess whether reported self-cleavage for A12C A26U sits at 0.06 or higher.
Result: no

Query: Assess whether reported self-cleavage for G21A A41U sits at 0.06 or higher.
Result: yes

Query: Assess whether reported self-cleavage for G27A G35U sits at 0.06 or higher.
Result: yes

Query: Assess whether reported self-cleavage for C8A A25U sits at 0.06 or higher.
Result: yes

Query: Assess whether reported self-cleavage for A16U G35U sits at 0.06 or higher.
Result: no

Query: Assess whether reported self-cleavage for A14C U34A sits at 0.06 or higher.
Result: yes

Query: Assess whether reported self-cleavage for C8U C15A sits at 0.06 or higher.
Result: yes

Query: Assess whether reported self-cleavage for A24C sits at 0.06 or higher.
Result: yes

Query: Assess whether reported self-cleavage for G36A C46G sits at 0.06 or higher.
Result: yes

Query: Assess whether reported self-cleavage for G22A C46A sits at 0.06 or higher.
Result: yes

Query: Assess whether reported self-cleavage for A26U U32G sits at 0.06 or higher.
Result: yes

Query: Assess whether reported self-cleavage for U20G C46A sits at 0.06 or higher.
Result: yes

Query: Assess whether reported self-cleavage for G2C U32C sits at 0.06 or higher.
Result: yes

Query: Assess whether reported self-cleavage for U9C C31G sits at 0.06 or higher.
Result: no

Query: Assess whether reported self-cleavage for G7A G30C sits at 0.06 or higher.
Result: yes

Query: Assess whether reported self-cleavage for G7A C15A sits at 0.06 or higher.
Result: yes

Query: Assess whether reported self-cleavage for A14C G40C sits at 0.06 or higher.
Result: no

Query: Assess whether reported self-cleavage for C10A A39G sits at 0.06 or higher.
Result: no

Query: Assess whether reported self-cleavage for A25C G33C sits at 0.06 or higher.
Result: no

Query: Assess whether reported self-cleavage for U9C A41G sits at 0.06 or higher.
Result: no

Query: Assess whether reported self-cleavage for A11U U43C sits at 0.06 or higher.
Result: no

Query: Assess whether reported self-cleavage for U20A C37G sits at 0.06 or higher.
Result: no

Query: Assess whether reported self-cleavage for G21C G29C sits at 0.06 or higher.
Result: yes

Query: Assess whether reported self-cleavage for G19C G27A sits at 0.06 or higher.
Result: yes

Query: Assess whether reported self-cleavage for C13U G27A sits at 0.06 or higher.
Result: yes

Query: Assess whether reported self-cleavage for G17A C46G sits at 0.06 or higher.
Result: yes

Query: Assess whether reported self-cleavage for G2C C37G sits at 0.06 or higher.
Result: no

Query: Assess whether reported self-cleavage for U9G A41C sits at 0.06 or higher.
Result: no

Query: Assess whether reported self-cleavage for U28C G40C sits at 0.06 or higher.
Result: yes

meta.source: the RNAGym collection of RNA variant scans (doi:10.7554/elife.90254)
